System: primary human chondrocyte pellet cultures
Assay: Chondrogenesis activity assay in primary human chondrocyte pellet cultures (proteoglycan (aggrecan) induction, Blyscan assay)
Assay type: cell-based
Details: 336 h; proteoglycan (aggrecan) induction, primary human chondrocyte pellets, 2 weeks culture
Protocol: B) Chondrogenesis Activity Assay in Primary Human Chondrocyte Pellet Cultures In this assay human articular chondrocytes are harvested by enzymatic digestion from articular cartilage and passaged several times to dedifferentiate the chondrocytes and to propagate the cells. Cells are cultured as cell pellets in the presence of the compounds of the invention over 2 weeks, and the chondrogenic differentiation is quantified by the production of the chondrogenic marker aggrecan (proteoglycan). […]
EC50 vs 9 µM: less than gives true; not less than gives false.

Field: example entries. Status: answers known.
{"compound": "Cc1nccc2c1[nH]c1c(-c3ccc(OCc4nccc5ccccc45)cc3)cc(Cl)cc12 [Example 270]", "label-value": "true"}
{"compound": "Cc1nccc2c1[nH]c1c(-c3ccc4c(c3)OC(C)(C)C4)cc(Cl)cc12 [Example 195]", "label-value": "false"}
{"compound": "CCn1c2c(-c3cnn(Cc4cccnc4)c3)cc(Br)cc2c2ccnc(C)c21 [Example 5]", "label-value": "true"}

Moving on to another compound below.
Asked: # strict comparison: is reported EC50 < 9 µM? input = Cc1nccc2c1[nH]c1c(-c3ccc(OCc4nccn4C)cc3)cc(Cl)cc12 [Example 39]
Given back: true
